- targetOfAssay: T1, human Trop-2 (on the surface of human cell lines) (human, UniProt P09758 27-323)
- T1 sequence: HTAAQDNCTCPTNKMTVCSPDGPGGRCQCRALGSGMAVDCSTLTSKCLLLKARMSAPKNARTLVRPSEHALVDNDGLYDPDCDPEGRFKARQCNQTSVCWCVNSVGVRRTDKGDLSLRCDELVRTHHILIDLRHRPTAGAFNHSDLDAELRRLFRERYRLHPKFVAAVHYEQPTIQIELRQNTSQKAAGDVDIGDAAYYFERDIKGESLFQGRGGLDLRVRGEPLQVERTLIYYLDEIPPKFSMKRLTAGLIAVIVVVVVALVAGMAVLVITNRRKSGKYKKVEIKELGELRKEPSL
- procedureText: cell-based or functional assay
experimentalReadout: ADCC, PBMC killing (LDH), H322, Maximum killing (%)

Looking for the measured ADCC, PBMC killing (LDH), H322, Maximum killing (%) of hz-Ab21-2.2 (antibody, human IgG1, kappa, V domains shown, Humanized antibody) VH: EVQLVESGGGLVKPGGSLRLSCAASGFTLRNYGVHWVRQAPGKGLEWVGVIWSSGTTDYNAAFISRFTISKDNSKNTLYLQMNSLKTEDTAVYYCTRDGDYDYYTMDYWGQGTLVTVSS VL: EIVLTQSPATLSLSPGERATLSCRASKSVSTSAYSYIHWYQQKPGQPPRLLIYLTSNLESGIPARFSGSGSGTDFTLTISSLEPEDFAVYYCQHSRELPYTFGQGTKVEIKR , can you help?
51.6%

Looking for the measured ADCC, PBMC killing (LDH), H322, Maximum killing (%) of hz-Ab35-2.1 (antibody, human IgG1, kappa, V domains shown, Humanized antibody) VH: QVQLVQSGAEVKKPGASVKVSCKASGYTFTSSDINWVRQRPGQGLEWMGWIYPRDGSKKYAQKFQGRVTMTVDTSTSTVYMELSSLRSEDTAVYYCATRFATVVSNYGLDPWGQGTLVTVSS VL: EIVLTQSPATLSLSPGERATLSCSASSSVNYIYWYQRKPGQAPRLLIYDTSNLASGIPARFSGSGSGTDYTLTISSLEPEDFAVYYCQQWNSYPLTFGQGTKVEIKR , can you help?
51.3%

Looking for the measured ADCC, PBMC killing (LDH), H322, Maximum killing (%) of hz-Ab2-1.3 (antibody, human IgG1, kappa, V domains shown, Humanized antibody) VH: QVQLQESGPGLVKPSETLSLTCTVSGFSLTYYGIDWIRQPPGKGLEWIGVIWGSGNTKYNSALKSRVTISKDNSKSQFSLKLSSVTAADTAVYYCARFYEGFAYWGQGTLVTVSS VL: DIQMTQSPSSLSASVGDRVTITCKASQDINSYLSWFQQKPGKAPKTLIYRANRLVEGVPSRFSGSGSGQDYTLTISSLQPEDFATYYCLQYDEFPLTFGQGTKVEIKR , can you help?
48.1%
